Data credit: patent US20070066682A1

experimental-system: Human SSAO (Homo sapiens, UniProt Q16853)
Sequence (Q16853 1-763): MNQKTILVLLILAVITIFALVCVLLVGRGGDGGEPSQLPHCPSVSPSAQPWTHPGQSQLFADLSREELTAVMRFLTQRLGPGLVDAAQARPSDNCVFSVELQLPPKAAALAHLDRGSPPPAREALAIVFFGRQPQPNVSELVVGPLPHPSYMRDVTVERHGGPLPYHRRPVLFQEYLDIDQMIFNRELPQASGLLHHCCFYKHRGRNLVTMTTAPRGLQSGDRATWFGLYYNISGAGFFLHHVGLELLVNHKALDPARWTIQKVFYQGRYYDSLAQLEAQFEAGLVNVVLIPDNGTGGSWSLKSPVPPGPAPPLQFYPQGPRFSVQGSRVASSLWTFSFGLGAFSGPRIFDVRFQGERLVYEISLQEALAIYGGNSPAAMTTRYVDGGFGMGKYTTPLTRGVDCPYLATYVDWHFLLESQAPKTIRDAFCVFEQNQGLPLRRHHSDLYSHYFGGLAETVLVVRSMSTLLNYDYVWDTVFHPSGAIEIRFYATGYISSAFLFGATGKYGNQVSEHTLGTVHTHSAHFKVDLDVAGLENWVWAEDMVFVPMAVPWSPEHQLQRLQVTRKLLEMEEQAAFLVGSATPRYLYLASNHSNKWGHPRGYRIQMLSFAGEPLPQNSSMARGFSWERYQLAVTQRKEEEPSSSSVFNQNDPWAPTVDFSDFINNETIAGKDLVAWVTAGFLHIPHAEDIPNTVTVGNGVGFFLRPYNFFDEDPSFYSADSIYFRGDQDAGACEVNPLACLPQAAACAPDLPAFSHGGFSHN
method: SSAO activity, hydrogen peroxide production relative to benzylamine (human)
Type: biochemical
recorded-conditions: compound at 1 mM
Provide the recorded SSAO activity (% relative to benzylamine) Human for the entries that follow.
Give a bare numeral; the unit % is implied.

**Query** Consider the compound CCCCc1ccc(CN)cc1 . State its measured SSAO activity (% relative to benzylamine) Human.
**Result** 0.00

**Query** Consider the compound COc1ccc(CN)cc1 . State its measured SSAO activity (% relative to benzylamine) Human.
**Result** 0.00

**Query** Consider the compound NCCc1ccc(O)c(O)c1 . State its measured SSAO activity (% relative to benzylamine) Human.
**Result** 0.00

**Query** Consider the compound COc1cc(F)cc(CN)c1 . State its measured SSAO activity (% relative to benzylamine) Human.
**Result** 2.53

**Query** Consider the compound NCc1ccccc1 [Entry 1, Benzylamine, reference compound] . State its measured SSAO activity (% relative to benzylamine) Human.
**Result** 100

**Query** Consider the compound CCc1ccc(CN)cc1 . State its measured SSAO activity (% relative to benzylamine) Human.
**Result** 0.00

**Query** Consider the compound NCc1cccc(CN)c1 . State its measured SSAO activity (% relative to benzylamine) Human.
**Result** 0.00

**Query** Consider the compound NCc1ccc(C(=O)O)cc1 . State its measured SSAO activity (% relative to benzylamine) Human.
**Result** 0.00

**Query** Consider the compound CC(N)c1cccc2ccccc12 (stereo not drawn) . State its measured SSAO activity (% relative to benzylamine) Human.
**Result** 11.00

* * *

experimental-system: UniProt:Q16853
Sequence (Q16853 1-763): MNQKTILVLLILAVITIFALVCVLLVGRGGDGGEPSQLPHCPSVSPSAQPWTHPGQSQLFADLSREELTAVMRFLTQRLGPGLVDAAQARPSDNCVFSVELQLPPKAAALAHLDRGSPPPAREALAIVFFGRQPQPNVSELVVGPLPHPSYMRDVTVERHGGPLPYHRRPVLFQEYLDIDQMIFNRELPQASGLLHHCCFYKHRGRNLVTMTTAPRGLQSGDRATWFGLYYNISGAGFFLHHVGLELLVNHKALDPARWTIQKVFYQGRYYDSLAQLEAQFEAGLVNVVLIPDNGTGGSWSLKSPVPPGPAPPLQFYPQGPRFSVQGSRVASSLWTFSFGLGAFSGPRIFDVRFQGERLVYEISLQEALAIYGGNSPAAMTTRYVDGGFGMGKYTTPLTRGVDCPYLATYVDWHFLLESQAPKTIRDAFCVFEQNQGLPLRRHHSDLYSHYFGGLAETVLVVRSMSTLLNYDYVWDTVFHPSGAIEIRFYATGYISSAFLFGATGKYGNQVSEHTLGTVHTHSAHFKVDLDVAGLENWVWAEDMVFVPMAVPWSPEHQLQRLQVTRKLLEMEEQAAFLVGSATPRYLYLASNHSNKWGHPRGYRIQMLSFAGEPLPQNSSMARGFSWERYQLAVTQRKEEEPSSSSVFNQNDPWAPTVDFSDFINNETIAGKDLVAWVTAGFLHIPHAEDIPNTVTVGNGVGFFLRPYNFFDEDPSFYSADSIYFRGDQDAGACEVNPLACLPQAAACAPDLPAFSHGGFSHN
method: SSAO activity, hydrogen peroxide production relative to benzylamine (human)
Assay type: biochemical
recorded-conditions: compound at 1 mM
quantity-name: SSAO activity (% relative to benzylamine) Human (%)
Give a bare numeral; the unit % is implied.

**Query** Consider the molecule NCCCc1ccccc1 . State its measured SSAO activity (% relative to benzylamine) Human.
**Result** 60.30

**Query** Consider the molecule NCc1ccccc1F . State its measured SSAO activity (% relative to benzylamine) Human.
**Result** 1.3

**Query** Consider the molecule NCCCCc1ccccc1 . State its measured SSAO activity (% relative to benzylamine) Human.
**Result** 147.63

**Query** Consider the molecule NCc1ccc(C(F)(F)F)cc1 . State its measured SSAO activity (% relative to benzylamine) Human.
**Result** 0.50

**Query** Consider the molecule COc1cc(CN)cc(OC)c1 . State its measured SSAO activity (% relative to benzylamine) Human.
**Result** 0.00

**Query** Consider the molecule NCCc1ccccc1 . State its measured SSAO activity (% relative to benzylamine) Human.
**Result** 8.20

**Query** Consider the molecule NCc1ccc(OC(F)(F)F)cc1 . State its measured SSAO activity (% relative to benzylamine) Human.
**Result** 0.00

**Query** Consider the molecule NCc1c(O)ccc2ccccc12 . State its measured SSAO activity (% relative to benzylamine) Human.
**Result** 0.00

**Query** Consider the molecule COc1ccc(CN)c(OC)c1 . State its measured SSAO activity (% relative to benzylamine) Human.
**Result** 0.00

**Query** Consider the molecule NCc1cccc([N+](=O)[O-])c1O . State its measured SSAO activity (% relative to benzylamine) Human.
**Result** 0.11

**Query** Consider the molecule NCc1ccc(OCc2ccccc2)cc1 . State its measured SSAO activity (% relative to benzylamine) Human.
**Result** 0.0

**Query** Consider the molecule CC(C)(C)c1ccc(CN)cc1 . State its measured SSAO activity (% relative to benzylamine) Human.
**Result** 0.00

**Query** Consider the molecule COc1ccc(CCN)cc1OC . State its measured SSAO activity (% relative to benzylamine) Human.
**Result** 0.00
